Source listed as PubChem BioAssay.

Quick list: viability per entry.
assay method text: reversal of MRP1-mediated doxorubicin resistance, pilot screen, H69AR cells, doxorubicin co-treatment (AID 601)
measurement conditions: H69AR cells, CellTiter-Glo, 72 h; compound alone cytotoxicity; at 10 µM

[
  {
    "compound": "CCOC(=O)N1CCC(NC(=O)c2ccc3c(c2)sc2nc(-c4cccc(OC)c4)cn23)CC1",
    "viability, %": 49.9
  },
  {
    "compound": "COc1ccc(-n2c(=O)cc(N3CCN(Cc4ccccc4)CC3)[nH]c2=O)cc1",
    "viability, %": 92.7
  },
  {
    "compound": "Cn1nc(-c2ccc(C(=O)NCC3CCCO3)cc2)c2ccccc2c1=O (configuration not stated)",
    "viability, %": 84.7
  },
  {
    "compound": "O=C(CSc1nc2cc(S(=O)(=O)N3CCOCC3)ccc2o1)NC1CCCc2ccccc21 (configuration not stated)",
    "viability, %": 70.2
  },
  {
    "compound": "COc1ccc(/C=N/n2cnnc2SCc2ccc(OC)cc2)cc1",
    "viability, %": 89.9
  },
  {
    "compound": "c1ccc(-c2nc3ccccc3nc2-c2ccccn2)nc1",
    "viability, %": 89.5
  },
  {
    "compound": "O=C(c1cnn2c1NC(c1ccco1)CC2C(F)(F)F)N1CCN(c2cccc(Cl)c2)CC1 (configuration not stated)",
    "viability, %": 9.38
  },
  {
    "compound": "C(=C\\c1ccccc1)/CSc1nnc(-c2ccccn2)n1Cc1ccco1",
    "viability, %": 21.4
  },
  {
    "compound": "CCOC(=O)c1c(C)[nH]c(C(=O)Cn2c(=O)c3c(ncn3CC)n(Cc3ccccc3)c2=O)c1C",
    "viability, %": 85.2
  },
  {
    "compound": "Cc1cc2oc(C(=O)NC3CCS(=O)(=O)C3)c(C)c2cc1C (configuration not stated)",
    "viability, %": 93.7
  },
  {
    "compound": "CCOc1ccc2c(O)csc2c1",
    "viability, %": 95.9
  },
  {
    "compound": "COc1ccc(CN(C(=O)CN2C(=O)COc3ccccc32)C2CCCC2)c(OC)c1",
    "viability, %": 92.5
  },
  {
    "compound": "Cc1[nH]c2ccc(F)cc2c(=O)c1SC(F)(F)C(F)C(F)(F)F (configuration not stated)",
    "viability, %": 83.3
  },
  {
    "compound": "Cc1cc(C)n2nc(SCC(=O)N(C)c3ccccc3)nc2n1",
    "viability, %": 104
  },
  {
    "compound": "Cc1nc2scc(-c3ccco3)c2c(=O)n1/N=C/N(C)C",
    "viability, %": 95.3
  },
  {
    "compound": "CN(C)c1nc(OCCOC(=O)Nc2ccc(Cl)cc2Cl)nc(N(C)C)n1",
    "viability, %": 96.3
  },
  {
    "compound": "Cc1ccc2[nH]c(=O)c(-c3noc(-c4ccncc4)n3)cc2c1",
    "viability, %": 98.7
  },
  {
    "compound": "CCC(C)NC(=O)CCNS(=O)(=O)c1ccc(Br)cc1 (configuration not stated)",
    "viability, %": 98.5
  },
  {
    "compound": "Cc1c(C(=O)N2CCN(c3ccccc3)CC2)sc2ncnc(N3CCN(c4ccccc4)CC3)c12",
    "viability, %": 93
  },
  {
    "compound": "COCCn1cc(C(=O)NCCCN2CCC(C)CC2)c2c3ccccc3n(C)c2c1=O",
    "viability, %": 88.8
  },
  {
    "compound": "COc1cccc(CN2C(=O)C3(C(C#N)=C(N)OC4=C3C(=O)CCC4)c3ccccc32)c1 (configuration not stated)",
    "viability, %": 10.6
  },
  {
    "compound": "COc1ccc(CCN(C)CCCC(C#N)(c2cc(OC)c(OC)c(OC)c2)C(C)C)cc1OC (configuration not stated)",
    "viability, %": 95.6
  },
  {
    "compound": "O=C(NCc1nc2ccccc2[nH]1)c1ccc(Cl)c(S(=O)(=O)N2CCCC2)c1",
    "viability, %": 96.8
  },
  {
    "compound": "CCCC1(C(=O)OC)NC(c2cc(OC)c(OC)c(OC)c2)C2C(=O)N(CC)C(=O)C21 (configuration not stated)",
    "viability, %": 88.9
  },
  {
    "compound": "O=C(c1cc(-c2ccco2)nn1-c1cccc(Cl)c1)N1CCCCC1",
    "viability, %": 53.3
  },
  {
    "compound": "CCC(C(=O)Nc1ccccc1C(=O)N1CCCC1)N1C(=O)c2ccccc2C1=O (configuration not stated)",
    "viability, %": 102
  },
  {
    "compound": "CCc1ccc2oc(-c3cc(N)ccc3Cl)nc2c1",
    "viability, %": 77.2
  }
]
